target: COX-1 (Homo sapiens); construct: platelets in whole blood contain a large amount of the COX-1 enzyme; from tissue; host or cells: fresh human whole blood without anticoagulant, allowed to clot (platelets); test: Human Whole Blood (HWB) Assay: COX-1 (Clotting-induced TxB2 production); format: cell-based; conditions: clotting-induced TxB2, 1 hour at 37° C.
Sequence (P23219 24-599): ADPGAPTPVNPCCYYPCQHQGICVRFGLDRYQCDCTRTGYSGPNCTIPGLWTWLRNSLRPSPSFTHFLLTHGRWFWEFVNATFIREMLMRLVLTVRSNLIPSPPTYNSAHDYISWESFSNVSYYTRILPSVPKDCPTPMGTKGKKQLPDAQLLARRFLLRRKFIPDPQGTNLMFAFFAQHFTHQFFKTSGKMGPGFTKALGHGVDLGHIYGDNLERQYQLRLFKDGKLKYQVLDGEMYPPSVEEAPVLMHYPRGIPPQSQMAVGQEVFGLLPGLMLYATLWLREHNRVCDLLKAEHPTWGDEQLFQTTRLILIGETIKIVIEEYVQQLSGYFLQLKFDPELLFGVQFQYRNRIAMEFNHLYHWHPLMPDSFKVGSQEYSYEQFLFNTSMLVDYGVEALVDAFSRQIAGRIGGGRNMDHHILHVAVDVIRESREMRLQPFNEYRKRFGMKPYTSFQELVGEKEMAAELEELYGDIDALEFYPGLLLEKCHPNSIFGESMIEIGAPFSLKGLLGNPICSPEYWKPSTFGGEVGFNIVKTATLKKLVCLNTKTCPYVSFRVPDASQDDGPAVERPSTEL
pIC50: −log10 of the molar value.
MEASUREMENT NAME: pIC50

For the molecule shown here, COC1(C)OC(=O)C(c2ccc(F)cc2)=C1c1ccc(S(C)(=O)=O)cc1 (stereo not shown) , give the reported pIC50. < 4.52

----------
Molecular target: COX-2 (Homo sapiens)
Construct: incubation of human whole blood with LPS (lipopolysaccharide), which induces COX-2
Sequence (P35354 18-604): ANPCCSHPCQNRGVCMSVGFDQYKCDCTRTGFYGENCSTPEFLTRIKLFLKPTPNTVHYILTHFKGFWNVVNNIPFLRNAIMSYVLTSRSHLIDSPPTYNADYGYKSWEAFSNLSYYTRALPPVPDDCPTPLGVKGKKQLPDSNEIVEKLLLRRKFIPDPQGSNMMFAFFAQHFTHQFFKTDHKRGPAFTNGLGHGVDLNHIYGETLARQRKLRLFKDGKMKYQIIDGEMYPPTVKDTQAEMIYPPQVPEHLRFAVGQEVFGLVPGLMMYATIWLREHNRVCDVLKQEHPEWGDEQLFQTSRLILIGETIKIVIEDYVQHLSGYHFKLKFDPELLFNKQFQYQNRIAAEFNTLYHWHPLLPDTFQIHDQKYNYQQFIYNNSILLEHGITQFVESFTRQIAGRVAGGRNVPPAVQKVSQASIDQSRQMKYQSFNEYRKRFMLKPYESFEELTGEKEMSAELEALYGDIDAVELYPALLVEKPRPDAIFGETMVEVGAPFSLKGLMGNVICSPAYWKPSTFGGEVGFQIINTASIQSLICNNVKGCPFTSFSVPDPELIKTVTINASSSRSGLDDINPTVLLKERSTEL
Assay: Human Whole Blood (HWB) Assay: COX-2 (LPS-induced PGE2 production)
Details: LPS-induced PGE2, 24 hours at 37° C.
Here the recorded pIC50 is given for each entry.
// pIC50 is dimensionless: -log10 of concentration (M)

In the examples that follow, each entry is paired with its recorded pIC50.
| MOLECULE | MEASUREMENT NAME | RECORDED MEASUREMENT |
| --- | --- | --- |
| CC1(O)OC(=O)C(c2ccc(F)cc2)=C1c1ccc(S(C)(=O)=O)cc1 (centres unmarked) | pIC50 | 5.85 |
| CC1(O)OC(=O)C(c2ccccc2)=C1c1ccc(S(C)(=O)=O)cc1 (centres unmarked) | pIC50 | 5.90 |

Moving on to another molecule below.
Which pIC50 is reported with COX-2 (Homo sapiens) for this entry: CC1(O)OC(=O)C(c2ccc(Cl)cc2)=C1c1ccc(S(C)(=O)=O)cc1 (centres unmarked) ? 5.62
